Test system: Fibroblast
testDetails: Multiplex assay against human fibroblast
Type: toxicity, cell-based
testContext: 12 h, 10 µM, compound concentration 10 uM, replicate 2
# Lookup of reported Population Normal (%) keyed by entry
# output: bare number, implied unit %

Task item: For the compound `CCN1CCN(Cc2ccc(Nc3ncc(F)c(-c4cc(F)c5nc(C)n(C(C)C)c5c4)n3)nc2)CC1.CS(=O)(=O)O` , report Population Normal (%).
Reply: 90

====

Tested on: U2OS
testDetails: Multiplex assay against U2OS
Type: toxicity, cell-based
testContext: human, 12 h, 1 µM, compound concentration 1 uM, replicate 1
Parameter threshold = 10%. Response is label 1 when Population Fragmented Nuclei (%) meets or exceeds it, else label 0.

A selection of reference data follows.
S=C(NCCCc1c[nH]cn1)NCCCN(Cc1ccc(Cl)c(Cl)c1)c1ccc(Br)cn1; label 0
COc1cccc2cc(-c3nc([C@H]4CC[C@H](C(=O)O)CC4)n4ncnc(N)c34)[nH]c12 [OSI-027]; label 1
Cc1cc(C)c(S(=O)(=O)N(Cc2ccc(-c3cccc(S(C)(=O)=O)c3)cc2)Cc2ccc(C(F)(F)F)o2)c(C)c1; label 0

Task item: Reported Population Fragmented Nuclei (%) at or above 10%? `CCNc1cc(N[C@H]2CC[C@H](O)CC2)nc(Nc2ccc3c(ccn3Cc3ccccc3)c2)n1`
Reply: label 0

Task item: hey, is Population Fragmented Nuclei (%) for this one >= 10%? CN(C)C(=O)C(CCN1CCC(O)(c2ccc(Cl)cc2)CC1)(c1ccccc1)c1ccccc1.Cl [LOPERAMIDE HYDROCHLORIDE]
Reply: label 1

Task item: Could you verify whether the entry `COc1cc(N2CCN(C)CC2)ccc1Nc1ncc2c(n1)N(C)c1ccccc1C(=O)N2C` shows Population Fragmented Nuclei (%) of no less than 10%?
Reply: label 1

Task item: Entry C=C1/C(=C\C=C2/CCC[C@]3(C)[C@@H]([C@H](C)/C=C/[C@H](C)C(C)C)CC[C@@H]23)C[C@@H](O)C[C@@H]1O [DOXERCALCIFEROL] : is its Population Fragmented Nuclei (%) no less than 10%?
Reply: label 0
